Target: CCR2 (Homo sapiens, UniProt P41597)
Construct: endogenous in cells; host or cells: THP-1
Sequence (P41597 1-360 isoform P41597-2): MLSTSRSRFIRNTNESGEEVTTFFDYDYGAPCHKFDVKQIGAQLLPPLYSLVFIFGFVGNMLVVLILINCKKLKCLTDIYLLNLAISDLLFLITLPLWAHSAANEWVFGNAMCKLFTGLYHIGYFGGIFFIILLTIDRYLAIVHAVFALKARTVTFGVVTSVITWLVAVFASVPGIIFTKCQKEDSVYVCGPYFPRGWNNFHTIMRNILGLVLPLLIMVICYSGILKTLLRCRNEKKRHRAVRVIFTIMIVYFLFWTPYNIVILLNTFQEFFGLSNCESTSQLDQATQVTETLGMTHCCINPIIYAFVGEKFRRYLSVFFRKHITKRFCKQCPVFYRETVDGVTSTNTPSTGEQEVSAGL
Assay: CCR2 inhibitory potency assay, calcium flux method, THP-1 cells stimulated with 100 nM CCL2
Assay type: cell-based
Details: Table 4; CCR2 inhibition; read-out: mean IC50
Where no end group is shown, it is not given here. [ ]: non-standard residue; d: D form. Nle = CCCC[C@H](N)C(=O)O
endpoint-name: IC50 (nM)

[
  {
    "substance": "CCL2 variant, N-terminal FP(Nle)DGWRPRT (SEQ ID NO: 142), human CCL2 11-76 Met64Nle core (FP[Nle]DGWRPRT; also: fused to human CCL2 11-76 core with Met64Nle) [4P23-CCL2]",
    "tgt": "CCR2 (Homo sapiens, UniProt P41597)",
    "IC50 / nM": 1.02
  }
]

a. CCL2 variant, N-terminal FTNPTWQEYS (SEQ ID NO: 92), human CCL2 11-76 Met64Nle core (not fully specified (C-terminus); also: followed C-terminally by human CCL2 11-76 core with Met64Nle) [3P17-CCL2]
b. CCL2 variant, N-terminal FP(Nle)DGWRGGV (SEQ ID NO: 116), human CCL2 11-76 Met64Nle core (FP[Nle]DGWRGGV; also: followed by human CCL2 11-76 core with Met64Nle) [4P9-CCL2]
c. CCL2 variant, N-terminal FTNPTWDTQV (SEQ ID NO: 79), human CCL2 11-76 Met64Nle core (not fully specified (C-terminus); also: followed C-terminally by human CCL2 11-76 core with Met64Nle) [3P4-CCL2]
Problem: Please rank these substances by IC50 in descending order. Show the ranking through the labels, in the order asked for.
Solution: b, a, c
